Reported composite z-score values for a set of compounds
- Tested on: Fibrinogen (Alexa647-labelled)
- assay.procedure: Alexa647-fibrinogen binding to printed small molecules – biochemical, small-molecule microarray, 635/667 nm fluorescence, artefact control for SMM control-protein annotation, profiling panel (AID 1131);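 also: z-score merges 667 nm fluorescence with per-spot signal-to-noise over triplicate slides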
- condition.label: fibrinogen-A647 binding fluorescence, higher = more signal
reported.metric: composite z-score

[
  {
    "compound": "CC(c1ccccc1)C(O)C1C=CC2C(=O)N(Cc3ccccc3)C(=O)C2N1n1cnnc1 (centres undefined)",
    "numeric.readout": 0.654
  },
  {
    "compound": "COc1ccc([Si](C)(C)[C@H]2[C@H](CC(=O)N(CCO)Cc3ccccc3)O[C@@]3(C(=O)N(Cc4cccc(N5C(=O)c6cccc7cccc5c67)c4)c4ccccc43)[C@@H]2C)cc1",
    "numeric.readout": 0.281
  },
  {
    "compound": "COCC1=C([C@H](O)CCc2ccccc2)[C@H](CO)[C@@H]2C(=O)N(Cc3ccccc3)C(=O)[C@@H]2C1",
    "numeric.readout": 0.292
  },
  {
    "compound": "CN(C)CCCCNC(=O)[C@@H]1C[C@@H]2C(=O)N[C@@H](CCCCN)C(=O)N2[C@@H]1c1cccc(OCCO)c1",
    "numeric.readout": -0.581
  }
]

The values you see were collected from PubChem BioAssay.
